Reference for the values: ChEMBL document CHEMBL1138178

These compounds were tested on Cysteine protease falcipain-3 (Plasmodium falciparum); IC50 is the recorded read-out.
Sequence (Q9NBA7 whole entry): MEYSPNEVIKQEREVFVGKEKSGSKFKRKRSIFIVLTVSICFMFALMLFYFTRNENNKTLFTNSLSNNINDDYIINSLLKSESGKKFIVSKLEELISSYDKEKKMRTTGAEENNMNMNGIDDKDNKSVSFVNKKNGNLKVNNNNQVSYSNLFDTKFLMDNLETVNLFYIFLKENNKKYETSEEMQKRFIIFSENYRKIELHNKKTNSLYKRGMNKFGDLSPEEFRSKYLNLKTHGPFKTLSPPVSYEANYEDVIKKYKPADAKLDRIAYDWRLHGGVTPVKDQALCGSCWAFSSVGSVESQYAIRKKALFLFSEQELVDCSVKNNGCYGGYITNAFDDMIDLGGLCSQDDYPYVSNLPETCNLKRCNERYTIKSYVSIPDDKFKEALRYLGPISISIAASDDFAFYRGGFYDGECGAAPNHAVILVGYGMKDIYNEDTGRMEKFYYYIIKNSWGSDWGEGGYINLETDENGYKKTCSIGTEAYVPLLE
Number only, in µM; omit the unit.

{"molecule": "O=S(=O)(Cc1ccc(Cl)cc1)Cc1nc(-c2ccsc2)no1", "target-or-test-system": "Cysteine protease falcipain-3 (Plasmodium falciparum)", "unit-string": "µM", "IC50": 56.6}
{"molecule": "COC(=O)c1ccsc1NC(=O)CN1CCN(S(=O)(=O)c2ccc(Cl)cc2)CC1", "target-or-test-system": "Cysteine protease falcipain-3 (Plasmodium falciparum)", "unit-string": "µM", "IC50": 49.2}

Hi! What's the reported IC50 for CC(C)C[C@H](NC(=O)[C@H]1O[C@@H]1C(=O)O)C(=O)NCCCCN=C(N)N on Cysteine protease falcipain-3 (Plasmodium falciparum)?
0.075
